- ASSAY NAME: self-splicing fitness, log relative to wild type (ln ratio); higher = more splicing; Tetrahymena group I intron in knt gene, E. coli kanamycin selection, DiMSum; sequences stand for … in CUCUCU…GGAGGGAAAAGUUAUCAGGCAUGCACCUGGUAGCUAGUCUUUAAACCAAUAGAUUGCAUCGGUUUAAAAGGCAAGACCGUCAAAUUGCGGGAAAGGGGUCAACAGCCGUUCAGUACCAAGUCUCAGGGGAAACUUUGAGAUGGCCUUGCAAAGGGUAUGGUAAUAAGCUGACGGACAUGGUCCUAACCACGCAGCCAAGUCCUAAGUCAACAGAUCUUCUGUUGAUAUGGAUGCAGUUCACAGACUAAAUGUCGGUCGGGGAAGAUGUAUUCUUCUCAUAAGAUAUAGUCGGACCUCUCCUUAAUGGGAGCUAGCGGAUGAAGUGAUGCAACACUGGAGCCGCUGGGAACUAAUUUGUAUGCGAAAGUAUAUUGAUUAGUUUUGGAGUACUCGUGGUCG;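 note: selection with 25 µg/mL kanamycin versus none on LB agar overnight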
- RUN PARAMETERS: 30 °C
The following ranges of self-splicing fitness (ln) define the classes used here: bin A: < -3; bin B: ≥ -3 and < -2; bin C: ≥ -2

Some entries whose results are on file:
1. CGGUAGCAAUAUUACGGAGG	bin B
2. AUAGAGCAAUAUUACGACAC	bin C
3. CUUGAGCAAUAUUACGGGAA	bin A
4. UCAAAGCAAUAUUACGAGAA	bin A
5. CGCGAGCAAUAUUACGAUGU	bin A

Into which bin does this sequence go? CACCAGCAAUAUUACGGUAU
bin B

====

- ASSAY NAME: self-splicing fitness, log relative to wild type (ln ratio); higher = more splicing; Tetrahymena group I intron in knt gene, E. coli kanamycin selection, DiMSum; sequences stand for … in CUCUCU…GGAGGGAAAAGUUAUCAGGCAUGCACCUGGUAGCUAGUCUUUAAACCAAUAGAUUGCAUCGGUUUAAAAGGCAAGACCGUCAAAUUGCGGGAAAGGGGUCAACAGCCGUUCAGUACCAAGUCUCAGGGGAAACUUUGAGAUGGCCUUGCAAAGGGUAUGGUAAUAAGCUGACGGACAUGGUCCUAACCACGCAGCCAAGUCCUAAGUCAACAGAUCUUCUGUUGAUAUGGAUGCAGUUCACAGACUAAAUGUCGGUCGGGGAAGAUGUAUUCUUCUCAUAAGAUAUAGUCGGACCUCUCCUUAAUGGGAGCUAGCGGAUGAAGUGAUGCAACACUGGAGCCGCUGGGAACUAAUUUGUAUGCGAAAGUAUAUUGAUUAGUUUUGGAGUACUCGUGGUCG
- RUN PARAMETERS: 30 °C
Entries and their measured self-splicing fitness (ln) follow.
Just the number, please, no unit after it.

Worked set:
1) GGGAAGCAAUAUUACGAGAC	-1.98
2) GUCAAGCAAUAUUACGUAAA	-0.78
3) AGUGAGCAAUAUUACGCAGU	-3.01
4) UACUAGCAAUAUUACGGUCU	-1.3
5) AAUCAGCAAUAUUACGUUAA	-0.816
6) AUAGAGCAAUAUUACGUUUC	-3.32
7) AUAGAGCAAUAUUACGCCUU	-1.66
8) GUACAGCAAUAUUACGGCGA	-1.14

Entry CUGCAGCAAUAUUACGUGAG has what self-splicing fitness (ln)?
-0.703

Entry CUUCAGCAAUAUUACGAGUG has what self-splicing fitness (ln)?
-0.689

Entry AGAUAGCAAUAUUACGGUAG has what self-splicing fitness (ln)?
-3.93

Entry UAAGAGCAAUAUUACGGACG has what self-splicing fitness (ln)?
-1.89

Entry GUGGAGCAAUAUUACGUGCA has what self-splicing fitness (ln)?
-2.14

====

- ASSAY NAME: self-splicing fitness, log relative to wild type (ln ratio); higher = more splicing; Tetrahymena group I intron in knt gene, E. coli kanamycin selection, DiMSum; sequences stand for … in CUCUCU…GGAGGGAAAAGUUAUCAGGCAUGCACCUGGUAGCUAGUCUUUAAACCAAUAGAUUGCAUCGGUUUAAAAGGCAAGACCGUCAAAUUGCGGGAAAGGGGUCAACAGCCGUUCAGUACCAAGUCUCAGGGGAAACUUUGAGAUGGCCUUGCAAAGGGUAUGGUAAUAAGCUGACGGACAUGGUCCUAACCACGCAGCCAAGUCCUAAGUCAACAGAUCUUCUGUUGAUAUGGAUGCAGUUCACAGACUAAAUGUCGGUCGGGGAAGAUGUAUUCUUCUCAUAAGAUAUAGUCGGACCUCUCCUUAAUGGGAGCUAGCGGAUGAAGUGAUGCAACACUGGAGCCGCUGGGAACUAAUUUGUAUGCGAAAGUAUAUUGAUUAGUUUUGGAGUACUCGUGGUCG
- RUN PARAMETERS: 30 °C
Entries and their measured self-splicing fitness (ln) follow.

1. UUGUAGCAAUAUUACGGGCG	-1.05
2. GGCGAGCAAUAUUACGCGUG	-1.15
3. GGUUAGCAAUAUUACGGUGC	-1.07
4. UUUCAGCAAUAUUACGAUUG	-0.724

Entry GGUCAGCAAUAUUACGCCCA has what self-splicing fitness (ln)?
-1.55

Entry AUCGAGCAAUAUUACGUGAA has what self-splicing fitness (ln)?
-2.75

Entry GUCUAGCAAUAUUACGGUUG has what self-splicing fitness (ln)?
-2.54

Entry UCGGAGCAAUAUUACGGUGA has what self-splicing fitness (ln)?
-1.82

Entry AAUAAGCAAUAUUACGUGAU has what self-splicing fitness (ln)?
-2.97

Entry AGUCAGCAAUAUUACGUUCU has what self-splicing fitness (ln)?
-0.318

Entry GGCGAGCAAUAUUACGUUUA has what self-splicing fitness (ln)?
-1.4

Entry UAACAGCAAUAUUACGGAUU has what self-splicing fitness (ln)?
-3.02

====

Entries and their measured self-splicing fitness (ln) follow.
- ASSAY NAME: self-splicing fitness, log relative to wild type (ln ratio); higher = more splicing; Tetrahymena group I intron in knt gene, E. coli kanamycin selection, DiMSum; sequences stand for … in CUCUCU…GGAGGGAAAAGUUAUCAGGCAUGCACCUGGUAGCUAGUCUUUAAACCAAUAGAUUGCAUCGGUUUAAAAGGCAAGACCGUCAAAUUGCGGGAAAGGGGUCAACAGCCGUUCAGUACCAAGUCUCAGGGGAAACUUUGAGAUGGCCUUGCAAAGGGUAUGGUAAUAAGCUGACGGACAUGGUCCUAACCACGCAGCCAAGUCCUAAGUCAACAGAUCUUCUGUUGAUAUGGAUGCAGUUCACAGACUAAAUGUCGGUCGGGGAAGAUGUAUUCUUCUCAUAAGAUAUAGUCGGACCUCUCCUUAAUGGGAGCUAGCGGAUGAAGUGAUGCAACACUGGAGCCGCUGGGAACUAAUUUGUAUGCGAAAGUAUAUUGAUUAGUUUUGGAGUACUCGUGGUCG
- RUN PARAMETERS: 30 °C
Just the number, please, no unit after it.

Worked set:
1. GCCUAGCAAUAUUACGGCUA	-1.2
2. ACGAAGCAAUAUUACGUGCC	-1.6
3. AGCUAGCAAUAUUACGUCGA	-2.69
4. AGCCAGCAAUAUUACGGAUU	-2.85
5. ACCUAGCAAUAUUACGCUGC	-2.42

Entry CUCGAGCAAUAUUACGGUGA has what self-splicing fitness (ln)?
-2.66

Entry UACGAGCAAUAUUACGAGGG has what self-splicing fitness (ln)?
-1.82

Entry AGGUAGCAAUAUUACGUCGC has what self-splicing fitness (ln)?
-2.37

====

- ASSAY NAME: self-splicing fitness, log relative to wild type (ln ratio); higher = more splicing; Tetrahymena group I intron in knt gene, E. coli kanamycin selection, DiMSum; sequences stand for … in CUCUCU…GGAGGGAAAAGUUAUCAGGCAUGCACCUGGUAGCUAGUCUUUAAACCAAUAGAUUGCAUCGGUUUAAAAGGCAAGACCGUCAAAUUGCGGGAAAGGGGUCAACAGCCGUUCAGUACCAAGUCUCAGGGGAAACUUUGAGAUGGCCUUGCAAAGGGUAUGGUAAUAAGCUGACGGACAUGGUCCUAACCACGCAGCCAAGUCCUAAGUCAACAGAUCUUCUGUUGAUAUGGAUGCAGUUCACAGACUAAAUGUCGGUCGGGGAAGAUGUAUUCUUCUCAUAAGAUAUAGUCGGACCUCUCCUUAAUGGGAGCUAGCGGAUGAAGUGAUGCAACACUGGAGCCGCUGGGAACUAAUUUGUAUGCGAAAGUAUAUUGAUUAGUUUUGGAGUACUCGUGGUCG
- RUN PARAMETERS: 30 °C
MEASUREMENT NAME: self-splicing fitness (ln)
Just the number, please, no unit after it.

1) AGUGAGCAAUAUUACGACAC	-2.16
2) UUUAAGCAAUAUUACGGUAU	-3.05

Entry CGCUAGCAAUAUUACGGACA has what self-splicing fitness (ln)?
-0.438

Entry GACAAGCAAUAUUACGCUUU has what self-splicing fitness (ln)?
-3.43
